# IC50 per record follows
Target: human interleukin-23 receptor (recombinant human IL-23R-Fc chimera) (Homo sapiens, UniProt Q5VWK5)
Construct: Fc (IgG Fc fusion)
Assay: Human ELISA IL23/IL23R (assay for specific human IL23R antagonists)
Format: binding
Conditions: Table 11, Pen peptide compounds; read-out: Elisa IC50 Pen
Positions of bridges follow the written chain, without caps; N, C: chain ends. Non-standard residues stand in square brackets, D forms with d. Residues, ends and D or L forms follow the SMILES beside them. 2Nal = N[C@@H](Cc1ccc2ccccc2c1)C(=O)O; αMeL = CC(C)C[C@](C)(N)C(=O)O; Pen = CC(C)(S)[C@H](N)C(=O)O; Thp = NC1(C(=O)O)CCOCC1; Aib = CC(C)(N)C(=O)O; Ahx = NCCCCCC(=O)O; Ava = NCCCCC(=O)O
Value expressed in nM; do not type the unit.

Sample records with IC50:
compound	IC50 / nM
COc1ccc(C[C@@H]2NC(=O)[C@H]3NC(=O)[C@H](CCC(N)=O)NC(=O)[C@H](Cc4c[nH]c5ccccc45)NC(=O)[C@H]([C@@H](C)O)NC(=O)[C@H](CC(N)=O)NC(=O)[C@@H](NC(=O)CCCCCNC(=O)C[C@@H](C(=O)N[C@@H](CC(N)=O)C(=O)N[C@@H](CC(N)=O)C(N)=O)NC(=O)[C@](C)(CC(C)C)NC(=O)[C@H](Cc4ccc5ccccc5c4)NC2=O)C(C)(C)SSC3(C)C)cc1 [compound 162] ([Ahx][Pen]NTWQ[Pen]Y(Me)[2Nal][αMeL]DNN-NH2; disulfide 2-7; lactam N-11)	33.5
COc1ccc(C[C@@H]2NC(=O)[C@H]3NC(=O)[C@H](CCC(N)=O)NC(=O)[C@H](Cc4c[nH]c5ccccc45)NC(=O)[C@H]([C@@H](C)O)NC(=O)[C@H](CC(N)=O)NC(=O)[C@@H](NC(=O)CCCCCNC(=O)CC[C@@H](C(=O)N[C@@H](CC(N)=O)C(=O)NCC(N)=O)NC(=O)C4(CCOCC4)NC(=O)[C@H](Cc4ccc5ccccc5c4)NC2=O)C(C)(C)SSC3(C)C)cc1 [compound 161] ([Ahx][Pen]NTWQ[Pen]Y(Me)[2Nal][Thp]ENG-NH2; disulfide 2-7 (inferred); lactam N-11 (inferred))	76.6
COc1ccc(C[C@@H]2NC(=O)[C@H]3NC(=O)[C@H](CCC(N)=O)NC(=O)[C@H](Cc4c[nH]c5ccccc45)NC(=O)[C@H]([C@@H](C)O)NC(=O)[C@H](CC(N)=O)NC(=O)[C@@H](NC(=O)CCCCCNC(=O)CC[C@@H](C(=O)N[C@@H](CC(N)=O)C(=O)N[C@@H](CC(N)=O)C(N)=O)NC(=O)C(C)(C)NC(=O)[C@H](Cc4ccc5ccccc5c4)NC2=O)C(C)(C)SSC3(C)C)cc1 [compound 160] ([Ahx][Pen]NTWQ[Pen]Y(Me)[2Nal][Aib]ENN-NH2; disulfide 2-7; lactam N-11)	72.2
COc1ccc(C[C@@H]2NC(=O)[C@H]3NC(=O)[C@H](CCC(N)=O)NC(=O)[C@H](Cc4c[nH]c5ccccc45)NC(=O)[C@H]([C@@H](C)O)NC(=O)[C@H](CC(N)=O)NC(=O)[C@@H](NC(=O)CCCCNC(=O)CC[C@@H](C(=O)N[C@@H](CC(N)=O)C(=O)N[C@@H](CC(N)=O)C(N)=O)NC(=O)C(C)(C)NC(=O)[C@H](Cc4ccc5ccccc5c4)NC2=O)C(C)(C)SSC3(C)C)cc1 [compound 159] ([Ava][Pen]NTWQ[Pen]Y(Me)[2Nal][Aib]ENN-NH2; disulfide 2-7; lactam N-11)	280

Kindly consider the entry below.
Any idea what IC50 was measured for COc1ccc(C[C@@H]2NC(=O)[C@@H]3CSSC(C)(C)[C@H](NC(=O)CCCCCNC(=O)C[C@@H](C(=O)N[C@@H](CC(N)=O)C(=O)N[C@@H](CC(N)=O)C(N)=O)NC(=O)C(C)(C)NC(=O)[C@H](Cc4ccc5ccccc5c4)NC2=O)C(=O)N[C@@H](CC(N)=O)C(=O)N[C@@H]([C@@H](C)O)C(=O)N[C@@H](Cc2c[nH]c4ccccc24)C(=O)N[C@@H](CCC(N)=O)C(=O)N3)cc1 [compound 164] ([Ahx][Pen]NTWQCY(Me)[2Nal][Aib]DNN-NH2; disulfide 2-7; lactam N-11) ?
23.1

* * *

Test: Solubility testing of peptides at different pH
Format: physicochemical
Conditions: 50 mM phosphate buffer pH 6.5; target concentration 1 mg/ml; 2 hours agitation; read-out: Solubility Buffer pH 6.5
Positions of bridges follow the written chain, without caps; N, C: chain ends. Non-standard residues stand in square brackets, D forms with d. Residues, ends and D or L forms follow the SMILES beside them. 2Nal = N[C@@H](Cc1ccc2ccccc2c1)C(=O)O; NMeN = CN[C@@H](CC(N)=O)C(=O)O; Aib = CC(C)(N)C(=O)O; Ahx = NCCCCCC(=O)O
property name: solubility at 2 h (µg/mL)
Write down the numeric answer in µg/mL and omit the unit.

Report solubility at 2 h for COc1ccc(C[C@@H]2NC(=O)[C@@H]3CSSC[C@H](NC(=O)CCCCCNC(=O)C[C@@H](C(=O)N[C@@H](CC(N)=O)C(=O)N[C@@H](CC(N)=O)C(N)=O)NC(=O)C(C)(C)NC(=O)[C@H](Cc4ccc5ccccc5c4)NC2=O)C(=O)N(C)[C@@H](CC(N)=O)C(=O)N[C@@H]([C@@H](C)O)C(=O)N[C@@H](Cc2c[nH]c4ccccc24)C(=O)N[C@@H](CCC(N)=O)C(=O)N3)cc1 [compound 6] ([Ahx]C[NMeN]TWQCY(Me)[2Nal][Aib]DNN-NH2; disulfide 2-7; lactam N-11) please.
30
